B1: Twister Ribozyme (parent)
chain: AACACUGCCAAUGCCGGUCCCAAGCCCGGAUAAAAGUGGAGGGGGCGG

- Variants of: B1
- PROTOCOL_NOTES: self-cleavage, relative activity (ratio to wild type); higher = more cleavage; co-transcriptional
Hi, to clarify the labels: True covers self-cleavage from 0.7 upward, False covers anything below 0.7.

Here are 10 variants together with their reported answers.
INSERT INTO assay_data (mutation_annotation, qualitative_label) VALUES
  ('G28C G38U', 'False'),
  ('G16A G43C', 'False'),
  ('G16C U37C', 'False'),
  ('A33C G44C', 'True'),
  ('G17U G29U', 'False'),
  ('A30C U37C', 'False'),
  ('G28C A30U', 'True'),
  ('C8A C20G', 'False'),
  ('U12G G28A', 'True'),
  ('A30U C46U', 'True');

Check this variant for self-cleavage at or above 0.7: G48U True

Check this variant for self-cleavage at or above 0.7: G16U G38U True

Check this variant for self-cleavage at or above 0.7: C14U G43A False

Check this variant for self-cleavage at or above 0.7: C5U G29A True

Check this variant for self-cleavage at or above 0.7: G24U G48A False

Check this variant for self-cleavage at or above 0.7: C19U G41A False

Check this variant for self-cleavage at or above 0.7: G41U G48C True

Check this variant for self-cleavage at or above 0.7: C15G A32U False

Check this variant for self-cleavage at or above 0.7: G13U G41A False

Check this variant for self-cleavage at or above 0.7: C27U G28A False
